Test system: HOP-62 NSCLC
Assay: NCI tumour cell line growth inhibition, 48 h
Exercise: state measured GI50 for each of the compounds provided.

Please state recorded GI50 (tested on HOP-62 NSCLC) of `c1ccc(-c2n(Cc3ccc4ccccc4n3)cc[n+]2Cc2ccc3ccccc3n2)cc1`
5.66 µM

Please state recorded GI50 (tested on HOP-62 NSCLC) of CCOc1cc2ncc(C#N)c(Nc3ccc(F)c(Cl)c3)c2cc1NC(=O)CC1CCSS1 (stereo not drawn)
0.533 µM

Please state recorded GI50 (tested on HOP-62 NSCLC) of `CC[C@H](C)[C@H](NC(=O)C12CC(NC)(C1)C2)C(=O)N(C)[C@H](C[C@@H](OC(C)=O)c1nc(C(=O)N[C@@H](Cc2ccccc2)C[C@H](C)C(=O)OC)cs1)C(C)C`
0.542 µM

Please state recorded GI50 (tested on HOP-62 NSCLC) of `C=C1CC[C@@H]2C(C)(C)[C@H](O)CC[C@@]2(C)[C@@H]1COc1ccc2ccc(=O)oc2c1`
28.2 µM

Please state recorded GI50 (tested on HOP-62 NSCLC) of COc1ccc(C(=O)N2N=C(c3ccc(Br)cc3)CC2c2cn(-c3ccccc3)nc2-c2ccccc2)cc1 (stereo not drawn)
9.05 µM

Please state recorded GI50 (tested on HOP-62 NSCLC) of `Cc1cc(Cl)ccc1Nc1nc(C(F)(F)F)ccc1C(=O)N/N=C/c1cccc(O)c1`
7.22 µM

Please state recorded GI50 (tested on HOP-62 NSCLC) of `COc1cc(O)c2c3c(ccnc13)-c1ccccc1N2`
10.4 µM

Please state recorded GI50 (tested on HOP-62 NSCLC) of `C[C@H](Nc1ccc2c(c1)OCCn1cc(N3C(=O)OC[C@H]3C(F)F)nc1-2)C(N)=O`
17.5 µM

* * *

System: A549 NSCLC
Assay: NCI tumour cell line growth inhibition, 48 h
assay.readout: TGI

So what does the record say about TGI for `COc1cc(/C=N/NC(=O)c2c(Cl)c(Cl)c(Cl)c(Cl)c2-c2nc3ccccc3[nH]2)ccc1O` ?
> 100 µM

So what does the record say about TGI for `Cc1ccc(NN=NCCCCN=NNc2ccc(C)cc2)cc1` ?
> 100 µM

So what does the record say about TGI for CC1=NOC(C)(O)/C1=N/O (stereo not given) ?
> 100 µM

So what does the record say about TGI for CC(C)[C@@H](C)CC[C@@H](C)C1CC=C2[C@@H]3CCC4C[C@@H](O[Si](C)(C)C(C)(C)C)CC[C@]4(C)C3CC[C@@]21C (stereo not given in full) ?
> 100 µM

So what does the record say about TGI for `COc1ccc(-n2cnc3c(N)nc(N)nc32)cc1` ?
> 100 µM

So what does the record say about TGI for `COc1ccc2nc3n[nH]c(N)c3nc2c1` ?
> 26.5 µM

So what does the record say about TGI for CC(=O)OCC1OC(n2c(C)c(C(C)=O)c(-c3ccc(Cl)cc3)c(C#N)c2=S)C(OC(C)=O)C(OC(C)=O)C1OC(C)=O (stereo not given) ?
> 100 µM

So what does the record say about TGI for `COc1cc(/C=C\c2cc(/C=C\c3ccc(O)c(OC)c3)n(C(=O)COc3ccc(Cl)cc3Cl)n2)ccc1O` ?
10.3 µM

So what does the record say about TGI for [N-]=[N+]=NCC1OCC(O)C(OCc2ccccc2)C1OCc1ccccc1 (stereo not given) ?
> 100 µM

So what does the record say about TGI for NC(N)=NCCCC(NC(=O)OCCCCCn1ccc(N)nc1=O)C(=O)O (stereo not given) ?
> 100 µM

* * *

Exercise: state measured TGI for each of the compounds provided.
System: CCRF-CEM leukemia
Experiment: NCI tumour cell line growth inhibition, 48 h

So what does the record say about TGI for COCC1OC(OC2OCC3OC4(OCC(O)(C(C)OC)C5OCOC54)OC3C2OC)C(OC)C(O)C1OC1OC(C)C(OC)C(OC2OC(C)C3OC4(CC(O)C(OC5CC(OC6CC(C)([N+](=O)[O-])C(OC)C(C)O6)C(OC(=O)c6c(C)c(Cl)c(O)c(Cl)c6OC)C(C)O5)C(C)O4)OC3(C)C2O)C1O (stereo not drawn) ?
> 100 µM

So what does the record say about TGI for CC(=O)NC(CCCN(Cc1ccccc1)C(=O)NCCCl)C(=O)NCc1ccccc1 (stereo not drawn) ?
> 100 µM

So what does the record say about TGI for `O=C1Nc2ccccc2/C1=C/C(=N/c1nnc(-c2ccc(Cl)cc2)s1)c1ccccc1` ?
4.28 µM

So what does the record say about TGI for `CCOC(=O)c1sc2c(sc(=O)n2-c2ccccc2)c1O` ?
> 100 µM

So what does the record say about TGI for C/C=C/C1(C)/C(=N\O)C(C)(CCC)C(=O)N1O (stereo not drawn) ?
> 100 µM

So what does the record say about TGI for `COc1ccc(OC)c(N(CCN2C(=O)c3ccccc3C2=O)C(=O)CCl)c1` ?
0.542 µM

So what does the record say about TGI for `CC(C)OC(=O)c1cc(NC(=O)C(C)(C)C)c(F)cc1Cl` ?
> 100 µM

So what does the record say about TGI for COC(=O)CCC1(C)C2CCC1/C(=N/O)C2 (stereo not drawn) ?
> 100 µM

So what does the record say about TGI for COc1ccc(CN(Cc2ccc(OC)cc2)C(=O)CC2(O)CCc3ccccc3C2)cc1 (stereo not drawn) ?
> 100 µM

So what does the record say about TGI for `CC(=O)COC(=O)CC(C)=O` ?
> 100 µM

So what does the record say about TGI for `COC(=O)c1ccc2[nH]c(O)c(C(=Nc3ccc(N(C)C(=O)CN4CCN(C)CC4)cc3)c3cccc(OC)c3)c2c1` ?
6.83 µM

So what does the record say about TGI for `CCOC(=O)N1CCC2(CC1)CC(=O)N(Nc1ccccc1)C2=O` ?
> 100 µM

So what does the record say about TGI for `Cc1[nH]n(-c2ncc(C#N)c(=O)[nH]2)c(=O)c1CCO` ?
> 100 µM

So what does the record say about TGI for `COc1cc2c[n+](C)c3c4cc(OC)c(OC)cc4c(OCCCCCCCCOc4cc5c6cc(OC)c(OC)cc6c[n+](C)c5c5cc(OC)c(OC)cc45)cc3c2cc1OC` ?
> 100 µM

So what does the record say about TGI for `COCOCCCCCO[Si](C)(C)C(C)(C)C` ?
58.1 µM

So what does the record say about TGI for `CCOC(=O)/C=C(\C)Sc1cc(O)c2ccccc2c1O` ?
> 100 µM

So what does the record say about TGI for `CCCC(=O)OCC(COC(=O)CCC)OC(=O)CCC` ?
> 100 µM

So what does the record say about TGI for `COc1ccc(-n2cnc3c(N)nc(N)nc32)cc1` ?
> 100 µM

So what does the record say about TGI for `CN1CCCN(C)CCCN(C)CCCN(C)CCC1` ?
> 100 µM

So what does the record say about TGI for `COc1cc2c(cc1O)[C@@]1(Cc3ccc(OC)c(OC)c3)CCC(=O)N1CC2` ?
> 100 µM

So what does the record say about TGI for CCn1cc(C2NC(=O)c3ccccc3N2)c2cccc(C)c21 (stereo not drawn) ?
96.9 µM

So what does the record say about TGI for O=C(Nc1nc(=S)[nH][nH]1)C(=O)C1C(=O)Nc2ccccc2S1=O (stereo not drawn) ?
> 100 µM

So what does the record say about TGI for `C/C(=N/NC(=O)c1ccccc1O)c1ccc(/C(C)=N\NC(=O)c2ccccc2O)c2nc3cc(C)c(C)cc3nc12` ?
> 100 µM

* * *

Exercise: state measured TGI for each of the molecules provided.
Tested on: SNB-75 CNS
Assay: NCI tumour cell line growth inhibition, 48 h

So what does the record say about TGI for `CCCCC(CCCC)=NNC(=S)SC` ?
> 100 µM

So what does the record say about TGI for `Cc1[nH]n(-c2ncc(C#N)c(=O)[nH]2)c(=O)c1CCO` ?
99 µM

So what does the record say about TGI for `CN(C)C(=O)Oc1ccc[n+](C)c1` ?
> 100 µM

So what does the record say about TGI for COc1cc([C@@H]2c3cc4c(cc3[C@@H](NC(=O)c3cccc(C#N)c3)C3COC(=O)[C@@H]32)OCO4)cc(OC)c1O (stereo partly specified) ?
4.85 µM

So what does the record say about TGI for C[N+](C)(C)CC1CCCC(C[N+](C)(C)C)C1=NO (stereo unspecified) ?
> 100 µM

So what does the record say about TGI for COCC1OC(OC2OCC3OC4(OCC(O)(C(C)OC)C5OCOC54)OC3C2OC)C(OC)C(O)C1OC1OC(C)C(OC)C(OC2OC(C)C3OC4(CC(O)C(OC5CC(OC6CC(C)([N+](=O)[O-])C(OC)C(C)O6)C(OC(=O)c6c(C)c(Cl)c(O)c(Cl)c6OC)C(C)O5)C(C)O4)OC3(C)C2O)C1O (stereo unspecified) ?
> 100 µM

So what does the record say about TGI for CCOC(=O)Oc1ccc(C(CNC(C)C)OC(=O)OCC)cc1OC(=O)OCC (stereo unspecified) ?
> 100 µM

So what does the record say about TGI for `CC(=O)COC(=O)CC(C)=O` ?
> 100 µM

So what does the record say about TGI for `COc1ccc(NC(=O)CSc2nnc(-c3ccc(N=Cc4ccc(Cl)cc4)cc3)o2)cc1` ?
> 86.7 µM

So what does the record say about TGI for `O=C1c2ccccc2C(=O)c2[nH]c(Cc3ccccc3F)nc21` ?
> 100 µM

So what does the record say about TGI for `Cc1ccc(N=Nc2c(O)c(C(=O)O)cc3ccccc23)c(S(=O)(=O)O)c1` ?
> 100 µM
